Biological target: UniProt P35372
Sequence (P35372 whole entry): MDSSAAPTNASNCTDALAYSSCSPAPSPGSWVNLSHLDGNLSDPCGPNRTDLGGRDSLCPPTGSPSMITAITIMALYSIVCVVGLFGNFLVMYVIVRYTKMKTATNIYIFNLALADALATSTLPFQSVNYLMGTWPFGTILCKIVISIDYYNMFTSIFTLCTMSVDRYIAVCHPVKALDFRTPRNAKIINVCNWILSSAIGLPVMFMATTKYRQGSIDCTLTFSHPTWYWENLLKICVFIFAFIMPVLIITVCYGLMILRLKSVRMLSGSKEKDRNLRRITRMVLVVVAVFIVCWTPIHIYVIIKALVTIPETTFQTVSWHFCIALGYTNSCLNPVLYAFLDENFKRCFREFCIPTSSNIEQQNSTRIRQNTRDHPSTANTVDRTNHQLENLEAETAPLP
Experiment: GTP-γ-S Binding Assay (SPA-based), antagonist mode vs DAMGO
Assay type: biochemical
Settings: In vitro antagonism; agonist DAMGO 1 micromolar; Kb by Cheng-Prusoff equation
Given measured Kb, output label 1 if it is greater than or equal to 0.6 µM and label 0 if not.

Look over these answered cases.
{"compound": "NC(=O)c1ccc(OC2CCN(CC3CC3)CC2)nc1", "testSystem": "UniProt P35372", "className": "label 1"}
{"compound": "NC(=O)c1ccc(OC2CCN(Cc3ccccn3)CC2)nc1", "testSystem": "UniProt P35372", "className": "label 1"}
{"compound": "NC(=O)c1ccc(OC2CCN(Cc3cc4ccccc4[nH]3)CC2)nc1", "testSystem": "UniProt P35372", "className": "label 1"}
{"compound": "NC(=O)c1ccc(OC2CCN(CCCc3ccccc3)CC2)cc1", "testSystem": "UniProt P35372", "className": "label 0"}

Q: Is reported Kb greater than or equal to 0.6 µM here: NC(=O)c1ccc(OC2CCC(NCCC3CCOCC3)CC2)nc1 (racemic)
Result: label 0

Q: Is reported Kb greater than or equal to 0.6 µM here: NC(=O)c1ccc(OC2CCN(Cc3ccccc3)CC2)cc1 [Example 9, 4-(1-Benzyl-piperidin-4-yloxy)-benzamide]
Result: label 1
